All figures here come from ChEMBL document CHEMBL1136671.

Provide the reported Kd of each item.
Numbered stars: 1 amine (or outer) side, 2 acyl side, 3 side chain; on linkers, the order of the positions; unused ones are H or OH. Square brackets hold non-standard residues; d marks the D form. Peptide text beside a SMILES is read from it. pY = N[C@@H](Cc1ccc(OP(=O)(O)O)cc1)C(=O)O; X1 = O=C(c1ccc(C#CCN[*:1])cc1)[*:2]
Write the answer as a number in µM, unit excluded.

I looked up CC(=O)N[C@@H](Cc1ccc(OP(=O)(O)O)cc1)C(=O)N[C@@H](CCC(=O)O)C(=O)N[C@H](C(=O)N[C@@H](CC(C)C)C(N)=O)[C@@H](C)O (Ac-[pY]ETL-NH2) and its Kd for Tyrosine-protein kinase SYK (Homo sapiens, UniProt P43405) was 166

Lab note: compound CC(=O)N[C@@H](Cc1ccc(OP(=O)(O)O)cc1)C(=O)N[C@H](C(=O)NCC(=O)N[C@@H](CC(C)C)C(=O)NCC#Cc1ccc(C(=O)NCC#Cc2ccc(C(=O)N[C@@H](Cc3ccc(OP(=O)(O)O)cc3)C(=O)N[C@@H](CCC(=O)O)C(=O)N[C@H](C(=O)N[C@@H](CC(C)C)C(N)=O)[C@@H](C)O)cc2)cc1)[C@@H](C)O (Ac-[pY]TGL[X1][X1][pY]ETL-NH2) tested on Tyrosine-protein kinase SYK (Homo sapiens, UniProt P43405); recorded Kd was 0.029
